# ASSAY_REMARKS: Solubility of the compound of formula (i)
# Assay type: physicochemical
# ASSAY_CONTEXT: oil or lipid; in Panasate at room temperature
READOUT_TYPE: solubility

1) O=C(Cc1c(F)cccc1Cl)Nc1onc(-c2ccc(F)cc2)c1-c1ccncn1 [formula (i)]; ~2000 µg/mL
